molecular target: human melanocortin-4 receptor (recombinant hMC4-R) (human, UniProt P32245 1-332); test: cell-based or functional assay
Sequence (P32245 whole entry): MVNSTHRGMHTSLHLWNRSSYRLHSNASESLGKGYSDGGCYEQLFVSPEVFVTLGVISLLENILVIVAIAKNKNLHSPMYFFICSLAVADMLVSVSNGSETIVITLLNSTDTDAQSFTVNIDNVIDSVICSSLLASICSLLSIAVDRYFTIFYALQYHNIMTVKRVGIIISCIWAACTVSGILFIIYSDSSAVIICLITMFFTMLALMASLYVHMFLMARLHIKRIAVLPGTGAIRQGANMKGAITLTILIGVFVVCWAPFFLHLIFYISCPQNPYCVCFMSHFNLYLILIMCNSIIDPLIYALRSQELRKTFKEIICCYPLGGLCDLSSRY
Numbered stars: 1 amine (or outer) side, 2 acyl side, 3 side chain; on linkers, the order of the positions; unused ones are H or OH. Bridge positions count the residues as written; N and C are the ends. Square brackets hold non-standard residues; d marks the D form. * marks the point of attachment. Ser(Bzl) = O-benzyl-serine, O=C([C@H](COCc1ccccc1)N[*:1])[*:2]; Pro(trans-4-NH2) = O=C([C@@H]1C[C@@H](N[*:3])CN1[*:1])[*:2]; Met(O2) = CS(=O)(=O)CC[C@H](N)C(=O)O; Hyp = O=C(O)[C@@H]1C[C@@H](O)CN1; Orn = NCCC[C@H](N)C(=O)O; NHcPr = C1CC1N*
The binders listed here are annotated with their Emax (%), cAMP.

BINDER | Emax (%), cAMP
Ac-RE[Orn][dF]RW[Orn]-OH (lactam 2-7) [Peptide No. 7: Ac-Arg-cyclo(Glu-Orn-D-Phe-Arg-Trp-Orn)-OH] | 92
Ac-EQ[dF]RW[Orn]-NH2 (lactam 1-6; SMILES CC(=O)N[C@H]1CCC(=O)NCCC[C@@H](C(N)=O)NC(=O)[C@H](Cc2c[nH]c3ccccc23)NC(=O)[C@H](CCCNC(=N)N)NC(=O)[C@@H](Cc2ccccc2)NC(=O)[C@H](CCC(N)=O)NC1=O) [Peptide No. 21: Ac-cyclo(Glu-Gln-D-Phe-Arg-Trp-Orn)-NH2] | 49
Ac-RD[Hyp][dF]RWK-NH2 (lactam 2-7, also called Peptide Structure (Asp...Lys) in the row of No. 14) [Asp...Lys analog of peptide No. 14: Ac-Arg-cyclo(Asp-Hyp-D-Phe-Arg-Trp-Lys)-NH2] | 39
Ac-RDN[dF]RWK-OH (lactam 2-7, also called Peptide Structure (Asp...Lys) in the row of No. 20) [Asp...Lys analog of peptide No. 20: Ac-Arg-cyclo(Asp-Asn-D-Phe-Arg-Trp-Lys)-OH] | 73
Ac-RE[Met(O2)][dF]RW[Orn]-NH2 (lactam 2-7) [Peptide No. 13: Ac-Arg-cyclo(Glu-Met(O2)-D-Phe-Arg-Trp-Orn)-NH2] | 71
Ac-RDR[dF]RWK-OH (lactam 2-7) [Asp...Lys analog of peptide No. 9: Ac-Arg-cyclo(Asp-Arg-D-Phe-Arg-Trp-Lys)-OH] | 75
Ac-RDQ[dF]RWK-NHcPr (lactam 2-7, also called Peptide Structure (Asp...Lys) in the row of No. 19) [Asp...Lys analog of peptide No. 19: Ac-Arg-cyclo(Asp-Gln-D-Phe-Arg-Trp-Lys)-NH-cycProp] | 79
Ac-RE[Hyp][dF]RW[Orn]-NH2 (lactam 2-7) [Peptide No. 14: Ac-Arg-cyclo(Glu-Hyp-D-Phe-Arg-Trp-Orn)-NH2] | 104
Ac-RDK[dF]RWK-NH2 (lactam 2-7, also called Peptide Structure (Asp...Lys) in the row of No. 16) [Asp...Lys analog of peptide No. 16: Ac-Arg-cyclo(Asp-Lys-D-Phe-Arg-Trp-Lys)-NH2] | 97
Ac-RD[Orn](Ac)[dF]RWK-NH2 (lactam 2-7) [Asp...Lys analog of peptide No. 33: Ac-Arg-cyclo(Asp-Orn(Acetyl)-D-Phe-Arg-Trp-Lys)-NH2] | 62
Ac-DQ[dF]RWK-NH2 (lactam 1-6; SMILES CC(=O)N[C@H]1CC(=O)NCCCC[C@@H](C(N)=O)NC(=O)[C@H](Cc2c[nH]c3ccccc23)NC(=O)[C@H](CCCNC(=N)N)NC(=O)[C@@H](Cc2ccccc2)NC(=O)[C@H](CCC(N)=O)NC1=O, also called Peptide Structure (Asp...Lys) in the row of No. 21) [Asp...Lys analog of peptide No. 21: Ac-cyclo(Asp-Gln-D-Phe-Arg-Trp-Lys)-NH2] | 35
Ac-RE[Pro(trans-4-NH2)][dF]RW[Orn]-NH2 (lactam 2-7) [Peptide No. 32: Ac-Arg-cyclo(Glu-Pro(4R-NH2)-D-Phe-Arg-Trp-Orn)-NH2] | 55
Ac-REQ[dF]RW[Orn]-NH2 (lactam 2-7) [Peptide No. 12: Ac-Arg-cyclo(Glu-Gln-D-Phe-Arg-Trp-Orn)-NH2] | 96
Ac-RER[dF]RW[Orn]-OH (lactam 2-7) [Peptide No. 9: Ac-Arg-cyclo(Glu-Arg-D-Phe-Arg-Trp-Orn)-OH] | 82
Ac-RD[Orn][dF]RWK-NH2 (lactam 2-7) [Asp...Lys analog of peptide No. 8: Ac-Arg-cyclo(Asp-Orn-D-Phe-Arg-Trp-Lys)-NH2] | 79
Ac-REN[dF]RW[Orn]-NH2 (lactam 2-7) [Peptide No. 34: Ac-Arg-cyclo(Glu-Asn-D-Phe-Arg-Trp-Orn)-NH2] | 91
Ac-RD[Met(O2)][dF]RWK-NH2 (lactam 2-7, also called Peptide Structure (Asp...Lys) in the row of No. 13) [Asp...Lys analog of peptide No. 13: Ac-Arg-cyclo(Asp-Met(O2)-D-Phe-Arg-Trp-Lys)-NH2] | 29
Ac-REN[dF]RW[Orn]-OH (lactam 2-7) [Peptide No. 20: Ac-Arg-cyclo(Glu-Asn-D-Phe-Arg-Trp-Orn)-OH] | 76
Ac-REH[dF]RW[Orn]-OH (lactam 2-7) [Peptide No. 3: Ac-Arg-cyclo(Glu-His-D-Phe-Arg-Trp-Orn)-OH] | 83
RDXFRWK (N-terminal acetyl; Cit (citrulline) at 3; D-Phe at 4; side-chain lactam Asp2-Lys7; C-terminal amide (-NH2)) [Asp...Lys analog of peptide No. 15: Ac-Arg-cyclo(Asp-Cit-D-Phe-Arg-Trp-Lys)-NH2] | 69
Ac-RDR[dF]RWK-NH2 (lactam 2-7) [Asp...Lys analog of peptide No. 10: Ac-Arg-cyclo(Asp-Arg-D-Phe-Arg-Trp-Lys)-NH2] | 68
Ac-RER[dF]RW[Orn]-NH2 (lactam 2-7) [Peptide No. 10: Ac-Arg-cyclo(Glu-Arg-D-Phe-Arg-Trp-Orn)-NH2] | 98
Ac-REK[dF]RW[Orn]-NH2 (lactam 2-7) [Peptide No. 16: Ac-Arg-cyclo(Glu-Lys-D-Phe-Arg-Trp-Orn)-NH2] | 104
Ac-RE[Ser(Bzl)][dF]RW[Orn]-OH (lactam 2-7) [Peptide No. 17: Ac-Arg-cyclo(Glu-Ser(Bzl)-D-Phe-Arg-Trp-Orn)-OH] | 55
